# procedure-text: Clearance in rat at 2 mg/kg, iv
# Assay type: ADME, organism-based
# Set-up: dose 2 mg/kg, route intravenous
# condition-parameters: in vivo
quantity-measured: clearance (mL/min/kg)
Entry rule: numbers only, all in mL/min/kg.

Recorded clearance for Cc1cc(Cn2c(=O)c(C3=CS(=O)(=O)c4cc(NS(C)(=O)=O)ccc4N3)c(O)c3cc(F)ccc32)ccc1F , please?
186

---

# procedure-text: Cmax in dog at 1 mg/kg, po
# Type: ADME, organism-based, Canis lupus familiaris
# Parameters: dose 1 mg/kg, route oral
# condition-parameters: in vivo
quantity-measured: Cmax (ng/mL)
# number only, unit ng/mL dropped from output

Any idea what its Cmax is? The compound is Cc1cc(Cn2c(=O)c(C3=CS(=O)(=O)c4cc(NS(C)(=O)=O)ccc4N3)c(O)c3cc(F)ccc32)ccc1F
10.6
